TEST TARGET: T1, recombinant human FGFR3 IIIb Fc fusion protein (human, UniProt P22607-2 23-377, limits assumed)
T1 construct: Bought reagent; the IIIb splice isoform is meant; also called rhFGFR3 IIIb Fc; hFGFR3 IIIb; not shown: Fc fragment (removable by Factor Xa, detected with anti-human IgG)
T1 sequence (looked up): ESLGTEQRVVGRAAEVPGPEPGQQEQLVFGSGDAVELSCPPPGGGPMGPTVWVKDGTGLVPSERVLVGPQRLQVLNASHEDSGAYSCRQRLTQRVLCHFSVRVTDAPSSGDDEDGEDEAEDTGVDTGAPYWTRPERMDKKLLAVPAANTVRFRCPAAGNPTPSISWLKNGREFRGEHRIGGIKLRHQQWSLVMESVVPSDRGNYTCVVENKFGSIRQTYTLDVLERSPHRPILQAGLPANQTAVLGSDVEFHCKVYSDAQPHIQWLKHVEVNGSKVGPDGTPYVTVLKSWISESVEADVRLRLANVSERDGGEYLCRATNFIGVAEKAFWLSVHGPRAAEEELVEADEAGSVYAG
PROTOCOL NOTES: ECL competition assay: inhibition of rhFGFR3 IIIb Fc binding to coated FGF1 (competitor FGF1)
VALUE KIND: Maximum Neutralization (%)
Field: numeric (%). Do not append units.

BINDER	Maximum Neutralization (%)
27H2 Fab (Fab, V domains shown, not shown: a dimerising Fc or GST, Fab fragment of murine 27H2; preparation not described; also called anti-FGFR3 Fab fragment 27H2) VH: EIQLQQSGPELVKPGASVKVSCKASGYAFTSYNMYWVKQSHGKSLEWIGYIDPYNGGTRYNQKFKGKATMTVDKSSSTAYMHLNSLTSEDSAVYYCAREGGNYEAWFAYWGQGTLVTVSA VL: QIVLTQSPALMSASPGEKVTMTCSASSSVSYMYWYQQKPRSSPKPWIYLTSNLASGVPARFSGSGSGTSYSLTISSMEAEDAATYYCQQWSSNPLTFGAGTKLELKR	95.8

# ---- query binder ----
# input Could you share which Maximum Neutralization (%) value was measured for anti-FGFR3 monoclonal antibody 4E7 (antibody, mouse IgG1, kappa, V domains shown, Murine IgG1/kappa from hybridoma; also called 4E7 IgG1; 4E7 (7D12)) VH: EIQLQQSGPELVKPGASVKVSCKASGYAFTSYNMYWVKQSHGKSLEWIGYIDPYNGGTRYNQKFKGKATLTVDKSSSTAYMHLNSLTSEDSAVYYCAREGGNYEAWFAYWGQGTLVTVSA VL: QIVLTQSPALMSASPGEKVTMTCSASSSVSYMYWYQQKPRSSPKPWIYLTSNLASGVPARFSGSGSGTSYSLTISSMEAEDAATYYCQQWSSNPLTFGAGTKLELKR ?
# output 91.2
